attribute-measured: melting point

Bench note: what melting point did `Cc1nc(O)c2cc(Br)ccc2n1` show?
219 to 221 °C

Bench note: what melting point did `NC(CCN1CCCCC1)=NO` show?
137 to 139 °C

Bench note: what melting point did `Cc1ccc([N+](=O)[O-])cc1S(=O)(=O)Nc1ccccc1C(=O)O` show?
290 to 292 °C

Others:
Bench note: what melting point did `Oc1ccc(-c2ccccc2)nc1` show?
174 to 176 °C

Bench note: what melting point did `COC(=O)c1cc(S(=O)(=O)Cl)c(Cl)cc1Cl` show?
110 to 112 °C

* * *

melting point listing for selected molecules.

Bench note: what melting point did `CCc1nc(C)ncc1C(=O)O` show?
158 to 160 °C

Bench note: what melting point did `Cc1sc(=O)n(CCC(=O)O)c1C` show?
150 to 152 °C

Bench note: what melting point did `Clc1cc(Cl)cc(-c2nnc3ccc(Cl)nn23)c1` show?
209 to 211 °C

Bench note: what melting point did `Cc1oc(-c2cccs2)nc1CCl` show?
65 to 67 °C

Bench note: what melting point did `Cn1ccnc(Cl)c1=O` show?
118 to 120 °C

Turning now to a further molecule:
Bench note: what melting point did `COC(=O)c1ccc2c(=O)[nH]c(CCl)nc2c1` show?
210 to 212 °C
